- study_target: recombinant human Aggrecanase-2 Agg2-Phe628 (Homo sapiens, UniProt Q9UNA0)
- Sequence (Q9UNA0 262-628 limits assumed): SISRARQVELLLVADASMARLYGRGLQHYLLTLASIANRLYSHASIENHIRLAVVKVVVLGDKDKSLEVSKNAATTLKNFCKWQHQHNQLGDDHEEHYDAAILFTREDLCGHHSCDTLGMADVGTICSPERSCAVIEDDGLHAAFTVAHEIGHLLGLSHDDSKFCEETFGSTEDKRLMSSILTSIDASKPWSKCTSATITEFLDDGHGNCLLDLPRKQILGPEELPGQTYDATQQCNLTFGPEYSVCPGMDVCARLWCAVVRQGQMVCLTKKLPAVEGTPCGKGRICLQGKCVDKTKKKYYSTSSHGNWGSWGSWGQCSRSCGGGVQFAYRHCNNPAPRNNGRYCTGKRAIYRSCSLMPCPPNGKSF
- assay_procedure: Aggrecanase 2 in vitro enzyme assay (Agg-2 FRET, quenched fluorescent peptide substrate)
- Assay type: biochemical
- Set-up: purified recombinant human Aggrecanase-2 Agg2-Phe628 (MW=41,737); This is a truncated form of full-length human aggrecanase-2; made in house; host or cells: CHO cells
- condition_notes: read-out: Agg-2 FRET Median IC50
pIC50: −log10 of the molar value.
metric_name: pIC50

Here are 2 compounds together with their reported answers.
>>> df
                                   compound  metric_name  result_number
0  O=C(COc1ccccc1)NC(c1cc(Cl)c2cccnc2c1O)c1cccc2ncccc12 (centres unmarked)        pIC50           5.45
1  O=C(COc1ccccc1)NC(c1ccc([N+](=O)[O-])cc1)c1ccc2cccnc2c1O (centres unmarked)        pIC50           5.62

(I) O=C(CNc1cccnc1)NC(c1cccc([N+](=O)[O-])c1)c1cc(Cl)c2cccnc2c1O (centres unmarked)
(II) O=C(COc1ccccc1)NC(c1ccoc1)c1cc(Cl)c2cccnc2c1O (centres unmarked)
Request: Parameter metric = pIC50. Return the lower-valued option from I and II . Selection: enter the item's label.
Result: II
(II: 5.46, I: 5.81)

---

- study_target: Agg-1 (Homo sapiens, UniProt O75173)
- Sequence (O75173 213-837): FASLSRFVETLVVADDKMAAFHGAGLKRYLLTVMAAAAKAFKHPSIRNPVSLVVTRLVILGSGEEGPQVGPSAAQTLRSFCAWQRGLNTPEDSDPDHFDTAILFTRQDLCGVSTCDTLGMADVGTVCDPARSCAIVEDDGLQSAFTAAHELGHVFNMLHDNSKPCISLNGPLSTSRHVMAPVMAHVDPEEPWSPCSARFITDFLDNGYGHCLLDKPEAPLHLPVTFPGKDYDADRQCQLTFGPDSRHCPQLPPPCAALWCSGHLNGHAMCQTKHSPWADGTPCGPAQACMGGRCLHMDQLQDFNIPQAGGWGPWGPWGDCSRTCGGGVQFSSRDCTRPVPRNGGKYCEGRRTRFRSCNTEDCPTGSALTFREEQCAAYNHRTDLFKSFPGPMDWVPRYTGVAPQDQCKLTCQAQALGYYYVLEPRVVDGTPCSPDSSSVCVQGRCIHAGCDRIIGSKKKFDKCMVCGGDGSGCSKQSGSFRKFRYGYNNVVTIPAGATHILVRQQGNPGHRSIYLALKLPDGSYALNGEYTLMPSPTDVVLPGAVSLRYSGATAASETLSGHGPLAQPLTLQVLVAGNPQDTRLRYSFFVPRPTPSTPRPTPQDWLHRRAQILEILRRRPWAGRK
- assay_procedure: Agg-1 FRET assay
- Type: biochemical
- condition_notes: read-out: Agg1 IC50
pIC50: −log10 of the molar value.
metric_name: pIC50

Here are 5 compounds together with their reported answers.
In [3]: df
Out[3]:
                                   compound  result
0  O=C(CNCc1ccc2c(c1)OCO2)NC(c1ccccc1)c1cc(Cl)c2cccnc2c1O (centres unmarked)  < 4.96
1  O=C(COc1ccccc1)NC(c1cc2c(cc1Cl)OCO2)c1cc(Cl)c2cccnc2c1O (centres unmarked)  < 4.52
2  O=C(NC(c1ccco1)c1cc(Cl)c2cccnc2c1O)OCc1ccccc1 (centres unmarked)  < 4.70
3  Nc1cccc(C(NC(=O)COc2ccccc2)c2cc(Cl)c3cccnc3c2O)c1 (centres unmarked)  < 5.70
4  O=C(COc1ccccc1)NC(c1ccc2c(c1)OCO2)c1cc(Cl)c2cccnc2c1O (centres unmarked)  < 4.66

Simply: O=C(CNCc1ccncc1)NC(c1ccccc1)c1cc(Cl)c2cccnc2c1O (centres unmarked) , Agg-1 (Homo sapiens, UniProt O75173), pIC50 = < 4.17

Simply: O=C(COc1ccccc1)NC(c1ccc([N+](=O)[O-])cc1)c1cc(Cl)c2cccnc2c1O (centres unmarked) , Agg-1 (Homo sapiens, UniProt O75173), pIC50 = < 4.70

Simply: O=C(NC(c1ccccn1)c1cc(Cl)c2cccnc2c1O)OCc1ccccc1 (centres unmarked) , Agg-1 (Homo sapiens, UniProt O75173), pIC50 = < 4.17

Simply: O=C(CNCc1cccnc1)NC(c1ccccc1)c1cc(Cl)c2cccnc2c1O (centres unmarked) , Agg-1 (Homo sapiens, UniProt O75173), pIC50 = < 4.17

Simply: O=C(CNCc1ccc2c(c1)OCO2)NC(c1ccccc1Cl)c1cc(Cl)c2cccnc2c1O (centres unmarked) , Agg-1 (Homo sapiens, UniProt O75173), pIC50 = 4.86

Simply: O=C(COc1ccc(-c2ccccc2)cc1)NC(c1ccccc1)c1cc(Cl)c2cccnc2c1O (centres unmarked) , Agg-1 (Homo sapiens, UniProt O75173), pIC50 = 4.70 to 5.13

Simply: O=C(COc1ccccc1)NC(c1ccc(-c2ccccc2)cc1)c1cc(Cl)c2cccnc2c1O (centres unmarked) , Agg-1 (Homo sapiens, UniProt O75173), pIC50 = < 3.70

Simply: Cc1ccc(C(NC(=O)COc2ccccc2)c2cc(Cl)c3cccnc3c2O)o1 (centres unmarked) , Agg-1 (Homo sapiens, UniProt O75173), pIC50 = < 4.66

Simply: O=C(NC(c1ccccc1Cl)c1cc(Cl)c2cccnc2c1O)OCc1ccccc1 (centres unmarked) , Agg-1 (Homo sapiens, UniProt O75173), pIC50 = < 4.17

Simply: COc1cc(OC)cc(OCC(=O)NC(c2ccccc2Cl)c2cc(Cl)c3cccnc3c2O)c1 (centres unmarked) , Agg-1 (Homo sapiens, UniProt O75173), pIC50 = ~4.66

Simply: O=C(NC(Cc1ccccc1)c1cc(Cl)c2cccnc2c1O)OCc1ccccc1 (centres unmarked) , Agg-1 (Homo sapiens, UniProt O75173), pIC50 = < 4.17

Simply: CCN(CC)c1ccc(C(NC(=O)COc2ccccc2)c2cc(Cl)c3cccnc3c2O)cc1 (centres unmarked) , Agg-1 (Homo sapiens, UniProt O75173), pIC50 = 4.17 to 4.66

Simply: O=C(COc1ccccc1)NC(C1=CCCCC1)c1cc(Cl)c2cccnc2c1O (centres unmarked) , Agg-1 (Homo sapiens, UniProt O75173), pIC50 = 5.10 to 6.00

Simply: O=C(NC(c1ccc2c(c1)OCO2)c1cc(Cl)c2cccnc2c1O)OCc1ccccc1 (centres unmarked) , Agg-1 (Homo sapiens, UniProt O75173), pIC50 = < 5.52

Simply: O=C(COc1ccccc1)NC(c1ccc(-c2ccccc2)o1)c1cc(Cl)c2cccnc2c1O (centres unmarked) , Agg-1 (Homo sapiens, UniProt O75173), pIC50 = < 4.66

Simply: O=C(CCl)NC(c1ccccc1)c1cc(Br)c2cccnc2c1O (centres unmarked) , Agg-1 (Homo sapiens, UniProt O75173), pIC50 = 4.17 to 4.66

Simply: O=C(COc1ccccc1)NC(c1ccc(-c2csnn2)cc1)c1cc(Cl)c2cccnc2c1O (centres unmarked) , Agg-1 (Homo sapiens, UniProt O75173), pIC50 = 5.33

Simply: CN(C)c1cc(C(NC(=O)COc2ccccc2)c2ccccc2)c(O)c2ncccc12 (centres unmarked) , Agg-1 (Homo sapiens, UniProt O75173), pIC50 = ~4.60

Simply: O=C(COc1ccccc1)NC(c1ccc(-n2cccn2)cc1)c1cc(Cl)c2cccnc2c1O (centres unmarked) , Agg-1 (Homo sapiens, UniProt O75173), pIC50 = 5.24

Simply: O=C(CNCc1ccccn1)NC(c1ccccc1)c1cc(Cl)c2cccnc2c1O (centres unmarked) , Agg-1 (Homo sapiens, UniProt O75173), pIC50 = < 4.30

Simply: O=C(COc1ccc(C2CCCC2)cc1)NC(c1ccccc1Cl)c1cc(Cl)c2cccnc2c1O (centres unmarked) , Agg-1 (Homo sapiens, UniProt O75173), pIC50 = < 4.70

Simply: CN(C)CC(=O)Nc1cccc(C(NC(=O)COc2ccccc2)c2cc(Cl)c3cccnc3c2O)c1 (centres unmarked) , Agg-1 (Homo sapiens, UniProt O75173), pIC50 = 4.17 to 4.66

Simply: CS(=O)(=O)Nc1cccc(C(NC(=O)COc2ccccc2)c2cc(Cl)c3cccnc3c2OS(C)(=O)=O)c1 (centres unmarked) , Agg-1 (Homo sapiens, UniProt O75173), pIC50 = < 4.70

Simply: O=C(COc1ccc2c(c1)OCO2)NC(c1ccccc1Cl)c1cc(Cl)c2cccnc2c1O (centres unmarked) , Agg-1 (Homo sapiens, UniProt O75173), pIC50 = 4.70 to 5.13
